Tested on: HCT-15 colon
Assay: NCI tumour cell line growth inhibition, 48 h
Entries annotated with measured TGI

COC(=O)c1ccc2c(c1)CC1(C2)Cc2ccccc2C1=O (centres undefined) : > 100 µM
Cc1ccc(C2CC(c3ccc(Nc4ccnc5cc(Cl)ccc45)cc3)=NN2C=O)cc1 (centres undefined) : > 100 µM
COc1ccc(-c2csc(Nc3cccc(-c4csc(C)n4)c3)n2)cc1 : > 47.7 µM
O=[N+]([O-])c1cccc(Nc2nc(Cl)nc(Cl)n2)c1 : > 100 µM
CCOP(=O)(O)C(Nc1ccc(N=Nc2ccccc2)cc1)c1cccc(C(Nc2ccc(N=Nc3ccccc3)cc2)P(=O)(O)OCC)c1 (centres undefined) : > 100 µM
Cc1cn(C2CC(N=[N+]=[N-])C(COP(=O)(O)OCC3OC(n4cc(F)c(=O)[nH]c4=O)CC3O)O2)c(=O)[nH]c1=O (centres undefined) : > 100 µM

Which TGI is listed for C=CCN1CCC(c2cc(C(=O)OCC)[nH]c2-c2cc(C)no2)C1=O (centres undefined) ?
> 100 µM

Now consider `CC[C@H]1OC(=O)[C@H](C)[C@@H](O[C@H]2C[C@@](C)(OC)[C@@H](O)[C@H](C)O2)[C@H](C)[C@@H](O[C@@H]2O[C@H](C)C[C@H](N(C)C)[C@H]2O)[C@](C)(OC)C/C(C)=C2/O[C@@]1(C)C=C2C` and answer again.
3.6 µM

Now consider `O=[N+]([O-])/C(Cl)=C(/C(Cl)=C(Cl)Cl)N1CCOCC1` and answer again.
3.24 µM

Now consider `COC(=O)/C=C\C(C#N)(C#N)N=Cc1ccc(OC)cc1` and answer again.
13.2 µM

Now consider `Cc1cc(-c2nc3c(F)cccc3s2)ccc1N` and answer again.
> 100 µM

Now consider `CN(N=O)c1nc2c(C(N)=O)ncn2s1` and answer again.
> 100 µM

Now consider CC(Oc1ccccc1Cl)C(=O)NN1C(=O)CC(=O)N(c2ccc(Cl)cc2)C1=S (centres undefined) and answer again.
> 100 µM

Now consider `O=[N+]([O-])c1ccc(-c2nn3c(C45CC6CC(CC(C6)C4)C5)nnc3s2)c(Cl)c1` and answer again.
> 100 µM

###

Entries annotated with measured TGI
Tested on: OVCAR-8 ovarian
Experiment: NCI tumour cell line growth inhibition, 48 h

Which TGI is listed for `O=[N+]([O-])c1ccc(N=Nc2c(O)[nH]c3ccccc23)c([N+](=O)[O-])c1` ?
27.8 µM

###

Entries annotated with measured TGI
Test system: NCI-H460 lung
Assay: NCI tumour cell line growth inhibition, 48 h

CCCCC1(C(NC(=O)c2ccccc2Cl)c2ccncc2)C(=O)N(c2ccccc2)N(c2ccccc2)C1=O (stereo not given) : > 100 µM
COC(=O)C(=O)C(C(=O)C(=O)Nc1ccc(C)cc1C)c1nc2ccc(Cl)cc2[nH]c1=O (stereo not given) : > 100 µM
OCC(O)C(O)C(O)C(O)c1nnc2c(-c3ccccc3)nc3ccccc3n12 (stereo not given) : > 100 µM
Cc1cc(NN=C(c2ccc(O)cc2)c2ccc(O)cc2)c([N+](=O)[O-])cc1[N+](=O)[O-] : 8.57 µM

Which TGI is listed for `COc1ccc(C2=Nn3c(nnc3-n3nc(C)cc3C)SC2)cc1` ?
> 100 µM
